Test: qHTS assay to identify small molecule antagonists of the constitutive androstane receptor (CAR) signaling pathway - cell viability counter screen (AID 1224837); note: nearly all actives have a fitted effect of over 45% in size
Settings: HepG2-CYP2B6-hCAR viability, CellTiter-Fluor, 23 h, co-treated with 50 nM CITCO; series mostly up to 92.4 µM
Description: National Center for Advancing Translational Sciences [NCATS] NIH Chemical Genomics Center [NCGC] U.S. Environmental Protection Agency [EPA] National Institutes of Environmental Health Sciences [NIEHS] National Toxicology Program [NTP] […] A double-stable (hCAR and CYP2B6-2.2kb) transfected cell line, derived from human hepatoma (HepG2) cells, was utilized for the duration of the quantitative high-throughput screens. […] The fluorescence intensity in the plates was then measured using a ViewLux plate reader.
Results filed as inconclusive are left out. Active and inactive are the calls of the source. Calls come from the whole dose curve; as a rule, active = well fitted cell-killing curve with a large enough effect in the repeat runs; inconclusive = weak or mixed curves, or effect the other way; inactive = flat fitted curve, though single readings scatter.
Tick one outcome: True (active), False (inactive)

For C1CCCC1 , what call appears in the results of this test?
False

For CCCCCCCCCCCCCCCCCC[N+](C)(C)C , what call appears in the results of this test?
True

For CSc1ccc(C(=O)c2[nH]c(=O)[nH]c2C)cc1 , what call appears in the results of this test?
False

For Cc1cccc(S(=O)(=O)O)c1C , what call appears in the results of this test?
False

For CCCCCCCCCCn1cc[n+](CCCCCCCCCC)c1C , what call appears in the results of this test?
True

For CCC(C)Nc1ccc(NC(C)CC)cc1 (stereo unspecified) , what call appears in the results of this test?
True

For CCCCCCC[N+](CC)(CC)CCCCc1ccc(Cl)cc1 , what call appears in the results of this test?
False

For CSc1ccc(/C=C2/C(C)=C(CC(=O)O)c3cc(F)ccc32)cc1 , what call appears in the results of this test?
False

For S=c1[nH]c2ccccc2s1 , what call appears in the results of this test?
False

For CCCCCCCCS(=O)C(C)Cc1ccc2c(c1)OCO2 (stereo unspecified) , what call appears in the results of this test?
False

For NNc1nc(-c2ccc(N)cc2)cs1 , what call appears in the results of this test?
False

For COc1cccc2c1C(=O)c1c(O)c3c(c(O)c1C2=O)C[C@@](O)(C(=O)CO)C[C@@H]3O[C@H]1C[C@H](N)[C@H](O[C@@H]2CCCCO2)[C@H](C)O1 , what call appears in the results of this test?
True

For CC1=C(/C=C/C(C)=C/C=C/C(C)=C/C=O)C(C)(C)CCC1 , what call appears in the results of this test?
True

For CO[Si](CCCNc1ccccc1)(OC)OC , what call appears in the results of this test?
False

For O=C(Nc1ccc(Oc2ccc(Cl)cc2)c(Cl)c1)c1cc(I)cc(I)c1O , what call appears in the results of this test?
False

For CCC(N)(CO)CO , what call appears in the results of this test?
False

---

Test: qHTS assay to identify small molecule agonists of the RXR signaling pathway - cell viability counter screen (AID 1159529); note: nearly all actives have a fitted effect of over 50% in size
Conditions: RXR-alpha-bla HEK293T viability, CellTiter-Glo, 16 h; series mostly up to 76.8 µM
Inconclusive results are not listed. Active and inactive are the calls of the source. The call rests on the fitted dose curve; in most records, active means well fitted cell-killing curve with a large enough effect in the repeat runs; inconclusive means weak or mixed curves, or effect the other way; inactive means no such curve, though single readings can be large or run the other way.
Tick one outcome: active, inactive

For CCCCCCCCCOC(=O)c1ccc(O)cc1 , what call appears in the results of this test?
active

For CC(=O)SC[C@@H](Cc1ccccc1)C(=O)NCC(=O)OCc1ccccc1 , what call appears in the results of this test?
inactive

For Cc1onc(-c2ccccc2Cl)c1C(=O)N[C@@H]1C(=O)N2[C@@H]1SC(C)(C)[C@@H]2C(=O)O , what call appears in the results of this test?
inactive

For Clc1ccc(C(Cn2ccnc2)OCc2ccc(Sc3ccccc3)cc2)c(Cl)c1 (centres undefined) , what call appears in the results of this test?
inactive
